Tested on: OATP1B3-transfected HeLa cells
Study conditions: read-out: Growth Inhibition OATP1B3 IC50
Numbered stars: 1 amine (or outer) side, 2 acyl side, 3 side chain; on linkers, the order of the positions; unused ones are H or OH. Bridge positions count the residues as written; N and C are the ends. Square brackets hold non-standard residues; d marks the D form. Peptide text beside a SMILES is read from it. Adda = CO[C@@H](Cc1ccccc1)[C@@H](C)/C=C(C)/C=C/[C@H](N[*:1])[C@H](C)C(=O)[*:2]; dAsp(3S-Me) = C[C@H](C(=O)[*:3])[C@@H](N[*:1])C(=O)[*:2]; d(γGlu) = O=C(O)[C@@H](CCC(=O)[*:2])N[*:1]; NMeDha = C=C(NC)C(=O)O
Property name: IC50 (pM)
Output spec: scalar in pM, unitless text.

Query for OATP1B3-transfected HeLa cells: what IC50 does the record show for C=C1C(=O)N[C@H](C)C(=O)N[C@@H](CC(C)C)C(=O)N[C@@H](C(=O)O)[C@H](C)C(=O)N[C@@H](Cc2c[nH]c3ccccc23)C(=O)N[C@@H](/C=C/C(C)=C/[C@H](C)[C@H](Cc2ccccc2)OC)[C@H](C)C(=O)N[C@@H](C(=O)O)CCC(=O)N1C [Microcystin LW, microcystin LW] (W[Adda][d(γGlu)][NMeDha][dA]L[dAsp(3S-Me)]-OH; lactam N-7) ?
500

Values from patent US9006173B2
